Attribution: patent US20100240683A1

# tested-on: CYP1A2 (Homo sapiens, UniProt P05177)
# Sequence (P05177 1-516): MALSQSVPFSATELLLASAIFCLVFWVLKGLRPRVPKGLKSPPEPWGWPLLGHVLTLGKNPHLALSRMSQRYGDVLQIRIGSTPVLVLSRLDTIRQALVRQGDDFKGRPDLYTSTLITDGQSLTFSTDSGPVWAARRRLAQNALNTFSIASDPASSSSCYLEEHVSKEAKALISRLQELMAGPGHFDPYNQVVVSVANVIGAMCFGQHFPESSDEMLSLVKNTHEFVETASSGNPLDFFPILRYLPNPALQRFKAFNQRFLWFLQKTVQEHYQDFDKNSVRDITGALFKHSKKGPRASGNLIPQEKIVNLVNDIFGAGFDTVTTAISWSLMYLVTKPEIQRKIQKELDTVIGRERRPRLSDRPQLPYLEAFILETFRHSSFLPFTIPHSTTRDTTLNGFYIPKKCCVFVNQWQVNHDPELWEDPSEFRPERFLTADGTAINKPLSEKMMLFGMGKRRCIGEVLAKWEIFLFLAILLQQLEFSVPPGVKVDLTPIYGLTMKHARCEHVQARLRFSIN
# assay-remarks: in vitro
# details: % Inhibition (set 2)
observation-type: inhibition at 50 μM (%)
Just the number in %, nothing appended.

What value of inhibition at 50 μM has been reported for the following molecule? Cc1nc2c([nH]1)c(=O)n(C)c(=O)n2Cc1ccco1 [Furafylline, reference compound]
99

====

# tested-on: CYP1A2 (Homo sapiens, UniProt P05177)
# assay-remarks: in vitro
# details: % Inhibition (set 2)
observation-type: inhibition at 3.7 μM (%)
Just the number in %, nothing appended.

CC(C)(CCCCCCCCCCC(C)(C)CC(=O)O)CC(=O)O	0

For the next question, use this compound.
What value of inhibition at 3.7 μM has been reported for the following compound? `CC(C)(CCCCCCCCCCCCC(C)(C)C(=O)O)C(=O)O`
5

====

# tested-on: CYP2D6 (Homo sapiens, UniProt P10635)
# Sequence (P10635 whole entry): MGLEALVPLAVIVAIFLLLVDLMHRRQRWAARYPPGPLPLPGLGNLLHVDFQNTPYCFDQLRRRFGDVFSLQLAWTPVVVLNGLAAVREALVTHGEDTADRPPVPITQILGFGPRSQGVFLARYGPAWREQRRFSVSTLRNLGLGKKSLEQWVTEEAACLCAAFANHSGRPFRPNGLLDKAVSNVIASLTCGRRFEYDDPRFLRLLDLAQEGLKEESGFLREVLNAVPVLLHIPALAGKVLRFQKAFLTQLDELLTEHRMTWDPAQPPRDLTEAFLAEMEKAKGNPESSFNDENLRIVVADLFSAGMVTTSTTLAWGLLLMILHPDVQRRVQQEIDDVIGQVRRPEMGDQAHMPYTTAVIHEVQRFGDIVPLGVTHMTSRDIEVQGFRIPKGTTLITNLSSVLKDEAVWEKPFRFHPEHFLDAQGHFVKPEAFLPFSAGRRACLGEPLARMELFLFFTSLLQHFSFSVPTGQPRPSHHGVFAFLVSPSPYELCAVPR
# assay-remarks: in vitro
# details: % Inhibition (set 2)
Known inhibition at 11.11 μM of a selection of molecules
Answer with the number, then the unit.

CC(C)(CCCCCCCCCCCCC(C)(C)C(=O)O)C(=O)O	2%

For the next question, use this molecule.
What value of inhibition at 11.11 μM has been reported for the following molecule? `CC(C)(CCCCCCCCCCC(C)(C)CC(=O)O)CC(=O)O`
6%

====

# tested-on: CYP3A4 (Homo sapiens)
# Sequence (P08684 whole entry): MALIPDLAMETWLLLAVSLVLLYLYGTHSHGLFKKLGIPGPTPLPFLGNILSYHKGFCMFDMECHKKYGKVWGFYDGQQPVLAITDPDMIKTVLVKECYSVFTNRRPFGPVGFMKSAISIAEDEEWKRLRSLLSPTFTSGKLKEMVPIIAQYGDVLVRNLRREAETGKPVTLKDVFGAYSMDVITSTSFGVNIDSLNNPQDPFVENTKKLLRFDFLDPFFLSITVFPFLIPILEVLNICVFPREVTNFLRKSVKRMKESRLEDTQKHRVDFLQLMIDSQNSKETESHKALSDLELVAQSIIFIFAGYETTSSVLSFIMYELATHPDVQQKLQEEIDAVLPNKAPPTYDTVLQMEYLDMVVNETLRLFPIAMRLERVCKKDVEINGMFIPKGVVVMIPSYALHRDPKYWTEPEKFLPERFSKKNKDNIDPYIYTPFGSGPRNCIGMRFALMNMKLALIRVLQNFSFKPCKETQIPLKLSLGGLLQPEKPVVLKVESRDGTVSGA
# assay-remarks: in vitro
# details: % Inhibition (set 1)
observation-type: inhibition at 100 μM (%)
Just the number in %, nothing appended.

# returns recorded inhibition at 100 μM (system: CYP3A4 (Homo sapiens)) for `CC(C)(CCCCCCCCCCCCC(C)(C)C(=O)O)C(=O)O`
23

====

# tested-on: CYP2C9 (Homo sapiens, UniProt P11712)
# Sequence (P11712 whole entry): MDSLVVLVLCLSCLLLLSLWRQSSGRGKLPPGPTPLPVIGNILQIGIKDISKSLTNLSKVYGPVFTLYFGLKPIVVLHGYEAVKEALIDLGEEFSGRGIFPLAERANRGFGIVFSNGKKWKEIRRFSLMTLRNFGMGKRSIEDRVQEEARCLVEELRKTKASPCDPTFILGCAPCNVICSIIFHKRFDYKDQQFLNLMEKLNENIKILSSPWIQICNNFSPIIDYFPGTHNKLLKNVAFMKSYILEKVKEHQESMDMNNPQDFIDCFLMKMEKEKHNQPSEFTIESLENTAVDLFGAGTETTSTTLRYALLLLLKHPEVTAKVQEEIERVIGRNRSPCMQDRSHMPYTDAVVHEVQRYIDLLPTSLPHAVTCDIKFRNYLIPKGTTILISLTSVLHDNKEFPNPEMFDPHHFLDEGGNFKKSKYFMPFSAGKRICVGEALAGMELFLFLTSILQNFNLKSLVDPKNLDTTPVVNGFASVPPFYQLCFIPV
# assay-remarks: in vitro
# details: % Inhibition (set 1)
Known inhibition at 100 μM of a selection of molecules
Just the number in %, nothing appended.

CC(C)(CCCCCCCCCCC(C)(C)CC(=O)O)CC(=O)O	50

What value of inhibition at 100 μM has been reported for the following molecule? `CC(C)(CCCCCCCCCCCCC(C)(C)C(=O)O)C(=O)O`
29

====

# tested-on: CYP2C19 (Homo sapiens, UniProt P33261)
# Sequence (P33261 whole entry): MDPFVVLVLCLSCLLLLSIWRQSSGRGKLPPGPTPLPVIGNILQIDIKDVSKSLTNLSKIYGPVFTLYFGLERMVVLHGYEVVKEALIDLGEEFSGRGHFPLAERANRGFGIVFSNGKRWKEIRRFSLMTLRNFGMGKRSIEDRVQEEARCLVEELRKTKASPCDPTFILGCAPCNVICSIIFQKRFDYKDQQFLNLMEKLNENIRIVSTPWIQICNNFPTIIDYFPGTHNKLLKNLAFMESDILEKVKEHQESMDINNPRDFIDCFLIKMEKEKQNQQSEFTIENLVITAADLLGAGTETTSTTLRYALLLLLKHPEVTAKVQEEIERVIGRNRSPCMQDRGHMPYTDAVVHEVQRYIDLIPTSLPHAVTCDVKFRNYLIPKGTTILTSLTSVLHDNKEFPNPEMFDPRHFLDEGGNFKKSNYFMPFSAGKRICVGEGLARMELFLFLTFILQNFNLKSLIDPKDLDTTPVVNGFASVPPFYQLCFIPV
# assay-remarks: in vitro
# details: % Inhibition (set 1)
observation-type: inhibition at 11.11 μM (%)
Just the number in %, nothing appended.

CC(C)(CCCCCCCCCCCCC(C)(C)C(=O)O)C(=O)O	3

For the next question, use this molecule.
What value of inhibition at 11.11 μM has been reported for the following molecule? `CC(C)(CCCCCCCCCCC(C)(C)CC(=O)O)CC(=O)O`
0
